Tested on: SK-BR-3
Assay: Cytotoxicity against ER deficient human SKBR3 cells after 24 hrs by MTT assay
Type: functional, cell-based
Details: SK-BR-3, 24 h
measurement type: pIC50
Answers are plain numbers, as −log10 of the molar value.

O=C(CCCO[N+](=O)[O-])Oc1ccccc1C(=O)Oc1ccc(-c2cc(=S)ss2)cc1; 7.12

Would you mind giving pIC50 for every compound in the list below?
1. O=C(CCCC[C@@H]1CCSS1)Oc1ccccc1C(=O)OCCCCO[N+](=O)[O-]
2. O=C(CCC(=O)Oc1ccccc1C(=O)Oc1ccc(-c2cc(=S)ss2)cc1)OCCCCO[N+](=O)[O-]
3. NC(=S)c1ccc(OC(=O)c2ccccc2OC(=O)CCCO[N+](=O)[O-])cc1

1. 6.26
2. 7.06
3. 5.19
